assay: in vitro; assay type: cell-based, Wistar rat; details: rat, cerebellar granule cells
ENDPOINT LABEL: MCC at 24 h

Measured MCC at 24 h of Nc1ccn([C@@H]2O[C@H](CO)[C@@H](O)[C@@H]2O)c(=O)n1 [Ara C, cytosine arabinoside] : > 150 µM

====

Protein target, amino acids: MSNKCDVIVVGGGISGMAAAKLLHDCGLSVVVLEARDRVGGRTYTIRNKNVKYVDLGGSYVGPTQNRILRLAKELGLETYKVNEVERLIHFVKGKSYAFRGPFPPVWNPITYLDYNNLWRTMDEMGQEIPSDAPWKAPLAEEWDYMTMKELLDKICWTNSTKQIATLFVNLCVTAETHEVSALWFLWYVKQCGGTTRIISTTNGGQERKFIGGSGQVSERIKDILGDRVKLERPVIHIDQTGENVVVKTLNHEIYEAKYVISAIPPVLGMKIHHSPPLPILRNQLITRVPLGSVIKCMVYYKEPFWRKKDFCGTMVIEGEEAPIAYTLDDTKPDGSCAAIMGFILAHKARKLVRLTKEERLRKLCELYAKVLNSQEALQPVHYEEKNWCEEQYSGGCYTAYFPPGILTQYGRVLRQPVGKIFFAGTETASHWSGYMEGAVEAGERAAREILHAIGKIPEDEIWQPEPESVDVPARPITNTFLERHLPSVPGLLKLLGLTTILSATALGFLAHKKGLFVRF
ENDPOINT LABEL: IC50 (µM)
Note: unit µM is implicit; provide only the numeric part.

Record summary for C#CCN[C@@H](C)CCCCC [Example S-2HPA, (S)-N-(2-heptyl)-propargylamine] : reported IC50 = 30

Given item C#CCN[C@@H](C)CC [Example S-2BuPA, (S)-N-(2-butyl)-propargylamine] , the value recorded as its IC50 is 500

Entry C#CCN(C)[C@H](C)CCCCC [Example R-2HMP, (R)-N-(2-heptyl)-N-methyl-propargylamine] ; IC50 = 0.03

// recorded IC50 for C#CCN[C@H](C)CCCC.Cl [Example R-2HxPA, hydrochloride] : 4

IC50 in this record for C#CCN(C)[C@@H](C)CCCCC [Example S-2HMP, (S)-N-(2-heptyl)-N-methyl-propargylamine] : 4

====

Target sequence: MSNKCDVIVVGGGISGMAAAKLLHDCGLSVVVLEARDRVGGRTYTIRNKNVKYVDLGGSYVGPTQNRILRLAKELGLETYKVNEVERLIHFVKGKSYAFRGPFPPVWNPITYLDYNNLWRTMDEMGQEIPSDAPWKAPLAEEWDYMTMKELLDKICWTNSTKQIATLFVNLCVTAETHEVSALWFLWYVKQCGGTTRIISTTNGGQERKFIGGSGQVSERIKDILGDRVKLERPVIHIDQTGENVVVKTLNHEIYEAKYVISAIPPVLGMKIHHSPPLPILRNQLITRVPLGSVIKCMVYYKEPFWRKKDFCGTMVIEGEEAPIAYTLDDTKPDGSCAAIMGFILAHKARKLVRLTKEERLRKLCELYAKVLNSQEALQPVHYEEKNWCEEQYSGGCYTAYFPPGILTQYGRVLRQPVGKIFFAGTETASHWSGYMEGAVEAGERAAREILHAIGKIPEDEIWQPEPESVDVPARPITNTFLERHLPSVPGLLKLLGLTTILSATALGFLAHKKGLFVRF
ENDPOINT LABEL: pIC50
Bear in mind: pIC50 is minus log10 of a mol/L concentration; give just that figure.

pIC50 measured on C#CCN[C@H](C)CCCCC.Cl [Example R-2HPA, hydrochloride] = 5.40

So, C#CCN[C@H](C)CC.Cl [Example R-2BuPA, hydrochloride] ? Its pIC50 was 4.15

pIC50 for "C#CCN(C)[C@@H](C)CCCC" is 6.15

Value of pIC50 reported for the compound "C#CCN(C)[C@H](C)CCCC" is 7.52
